- System: 786-0 renal
- TEST_DETAILS: NCI tumour cell line growth inhibition, 48 h

# COMPOUND, TGI
records = [
    ("O=c1ncccn1C1OC(CO)C(O)C1F (stereo not given)", "> 100 µM"),
    ("C[N+]1(CCCCN2c3ccccc3Sc3cc(N=[N+]=[N-])ccc32)CCN(C(=O)CCNC(=O)Cc2ccc(C(=O)c3ccccc3)cc2)CC1", "> 67.5 µM"),
    ("COc1ccc(CNC(=O)c2ccc(-c3cc(-c4nnc(C)o4)ccc3C)cc2)cc1", "> 25 µM"),
    ("CCc1nc2c([nH]1)C(=O)c1ccccc1C2=O", "> 100 µM"),
    ("Cn1c2ccccc2c2c3c(=O)[nH][nH]c(=O)c3c3c4ccccc4n(C)c3c21", "> 100 µM"),
]

Provenance of the data: PubChem BioAssay (NCI)
